- TARGET_SYSTEM: BTK (Homo sapiens, UniProt Q06187)
- Sequence (Q06187 whole entry): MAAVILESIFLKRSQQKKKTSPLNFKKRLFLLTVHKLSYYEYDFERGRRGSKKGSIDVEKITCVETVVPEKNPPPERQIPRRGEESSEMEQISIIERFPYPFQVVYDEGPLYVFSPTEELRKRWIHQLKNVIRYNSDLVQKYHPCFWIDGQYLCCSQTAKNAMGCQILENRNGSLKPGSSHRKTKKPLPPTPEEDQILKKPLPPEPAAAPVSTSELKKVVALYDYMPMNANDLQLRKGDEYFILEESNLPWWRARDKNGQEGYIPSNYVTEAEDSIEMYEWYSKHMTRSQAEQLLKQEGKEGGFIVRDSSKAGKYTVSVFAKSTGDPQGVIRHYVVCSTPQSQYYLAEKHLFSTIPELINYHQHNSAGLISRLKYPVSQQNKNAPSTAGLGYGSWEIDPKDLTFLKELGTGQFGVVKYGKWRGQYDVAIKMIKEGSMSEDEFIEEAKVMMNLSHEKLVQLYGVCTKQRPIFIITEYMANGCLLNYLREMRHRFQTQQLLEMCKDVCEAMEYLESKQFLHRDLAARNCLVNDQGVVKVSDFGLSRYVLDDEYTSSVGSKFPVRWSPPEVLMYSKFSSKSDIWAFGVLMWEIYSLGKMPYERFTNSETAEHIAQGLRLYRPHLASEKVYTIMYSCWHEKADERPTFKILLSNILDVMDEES
- TEST_DETAILS: Degradation of BTK protein in Namalwa cells (Western blot; DC50, Dmax)
- CONDITION_INFO: read-out: Dmax (BTK degradation)
Exercise: for every item that follows, state its recorded Dmax.

query: Any idea what Dmax was measured for NC(=O)c1c(-c2ccc(Oc3ccccc3)cc2)nn2c1NCC[C@H]2C1CCN(CC2CCN(C(=O)N3CCC(N4CCN(c5ccc6c(c5)CN(C5CCC(=O)NC5=O)C6=O)CC4)CC3)CC2)CC1 (stereo partly drawn) ?
result: > 90%

query: Any idea what its Dmax is? The molecule is Nc1ncnc2c1c(-c1ccc(Oc3ccccc3)cc1)nn2C1CCN(CCN2CCC(CC3CCN(c4ccc(NC5CCC(=O)NC5=O)cc4)CC3)C2)CC1 (stereo not drawn)
result: > 90%

query: What value of Dmax has been recorded for this entry: Nc1ncnc2c1c(-c1ccc(Oc3ccccc3)cc1)nn2C1CCN(C2CCN(CC3CCN(c4ccc5c(c4)C(=O)N(C4CCC(=O)NC4=O)C5=O)CC3)C2)CC1 (stereo not drawn)
result: > 90%

---

Kindly supply the reported DC50 values for the records listed here.
- TARGET_SYSTEM: BTK (Homo sapiens)
- TEST_DETAILS: Degradation of BTK protein in Namalwa cells (Western blot; DC50, Dmax)
- CONDITION_INFO: BTK degradation; cell line not given

query: Would you kindly share the measured DC50 for NC(=O)c1c(-c2ccc(Oc3ccccc3)cc2)nn2c1NCCC2C1CCN(C(=O)N2CCC(CN3CCN(c4ccc5c(c4)C(=O)N(C4CCC(=O)NC4=O)C5=O)CC3)CC2)CC1 (stereo not shown) [Compound 275] ?
result: < 10 nM

query: What does the data say about its DC50? Entry: Nc1ncnc2c1c(-c1ccc(Oc3ccccc3)cc1)nn2C1CCN(C2CCN(C(=O)N3CCC(CC4CCN(c5ccc6c(c5)CN(C5CCC(=O)NC5=O)C6=O)CC4)CC3)CC2)CC1 (stereo not shown) [Compound 238]
result: < 10 nM

query: Would you kindly share the measured DC50 for NC(=O)c1c(-c2ccc(Oc3ccccc3)cc2)nn2c1NCC[C@H]2C1CCN(C(=O)N2CCN(CCN3CCC(c4ccc5c(c4)C(=O)N(C4CCC(=O)NC4=O)C5=O)CC3)CC2)CC1 (stereo partly shown) [Compound 303] ?
result: 10 to 50 nM

query: What does the data say about its DC50? Entry: NC(=O)c1c(-c2ccc(Oc3ccccc3)cc2)nn2c1NCC[C@H]2C1CCN(C2CCN(C(=O)N3CCN(CC4CCN(c5ccc6c(c5)C(=O)N(C5CCC(=O)NC5=O)C6=O)CC4)CC3)CC2)CC1 (stereo partly shown) [Compound 391]
result: 10 to 50 nM

---

- TARGET_SYSTEM: BTK (Homo sapiens)
- TEST_DETAILS: Degradation of BTK protein in Namalwa cells (Western blot; DC50, Dmax)
- CONDITION_INFO: read-out: DC50 (BTK degradation); concentration giving 50% reduction of BTK expression level; cell line not given
PROPERTY_NAME: DC50

query: What value of DC50 has been reported for the following compound? Nc1ncnc2c1c(-c1ccc(Oc3ccccc3)cc1)nn2C1CCN(CCN2CCC(CN3CCN(c4ccc5c(c4)CN(C4CCC(=O)NC4=O)C5=O)CC3)CC2)CC1 (stereo not drawn)
result: > 50 nM

query: Returns the measured DC50 for the input compound. Input: Nc1ncnc2c1c(-c1ccc(Oc3ccccc3)cc1)nn2C1CCC(C(=O)N2CC(C3CCN(c4ccc5c(c4)CN(C4CCC(=O)NC4=O)C5=O)CC3)C2)CC1 (stereo not drawn)
result: < 10 nM

query: Item under review: Nc1ncnc2c1c(-c1ccc(Oc3ccccc3)cc1)nn2C1CCN(C2CCN(CC3CCN(c4ccc5c(c4)CN(C4CCC(=O)NC4=O)C5=O)C3)C2)CC1 (stereo not drawn) . Reported DC50?
result: 10 to 50 nM

query: What value of measured DC50 is listed for Nc1ncnc2c1c(-c1ccc(Oc3ccccc3)cc1)nn2C1CCN(CC2CCN(CC3CCN(c4ccc(NC5CCC(=O)NC5=O)cc4)CC3)CC2)CC1 (stereo not drawn) ?
result: < 10 nM

query: Suppose we examine the compound Nc1ncnc2c1c(-c1ccc(Oc3ccccc3)cc1)nn2C1CCC(CN2CC(N3CCN(c4ccc5c(c4)C(=O)N(C4CCC(=O)NC4=O)C5=O)CC3)C2)CC1 (stereo not drawn) ; what DC50 value has been reported?
result: < 10 nM

query: Request the reported DC50 associated with Nc1ncnc2c1c(-c1ccc(Oc3ccccc3)cc1)nn2C1CCN(C(=O)C2CC(N3CCN(c4ccc5c(c4)CN(C4CCC(=O)NC4=O)C5=O)CC3)C2)CC1 (stereo not drawn)
result: < 10 nM

---

- TARGET_SYSTEM: BTK (Homo sapiens, UniProt Q06187)
- TEST_DETAILS: Degradation of BTK protein in Namalwa cells (Western blot; DC50, Dmax)
PROPERTY_NAME: Dmax

query: Can you look up the measured Dmax of NC(=O)c1c(-c2ccc(Oc3ccccc3)cc2)nn2c1NCCC2C1CCN(CC2CCN(C(=O)N3CCC(CC4CCN(c5ccc6c(c5)C(=O)N(C5CCC(=O)NC5=O)C6=O)CC4)CC3)CC2)CC1 (stereo not drawn) for me?
result: > 75%

query: Request the reported Dmax associated with NC(=O)c1c(-c2ccc(Oc3ccccc3)cc2)nn2c1NCCC2C1CCN(CC2CCN(C(=O)N3CCC(C4CCN(c5ccc6c(c5)C(=O)N(C5CCC(=O)NC5=O)C6=O)CC4)CC3)CC2)CC1 (stereo not drawn)
result: > 90%

query: Name the recorded Dmax for NC(=O)c1c(-c2ccc(Oc3ccccc3)cc2)nn2c1NCC[C@H]2C1CCN(C2CCN(C(=O)N3CCN(Cc4ccc5c(c4)CN(C4CCC(=O)NC4=O)C5=O)CC3)CC2)CC1 (stereo partly drawn) .
result: > 75%

query: Reported Dmax, compound NC(=O)c1c(-c2ccc(Oc3ccccc3)cc2)nn2c1NCCC2C1CCN(C2CCN(C(=O)N3CCC(CN4CCN(c5ccc6c(c5)C(=O)N(C5CCC(=O)NC5=O)C6=O)CC4)CC3)CC2)CC1 (stereo not drawn) : ____
result: > 90%

query: Dear colleague, I am looking for the recorded Dmax of the following compound: Nc1ncnc2c1c(-c1ccc(Oc3ccccc3)cc1)nn2C1CCN(C2CCN(C(=O)N3CCC(CCCN4CCC(c5ccc6c(c5)CN(C5CCC(=O)NC5=O)C6=O)CC4)CC3)CC2)CC1 (stereo not drawn)
result: > 90%

query: Find the recorded Dmax belonging to NC(=O)c1c(-c2ccc(Oc3ccccc3)cc2)nn2c1NCCC2C1CCN(CC2CCN(C(=O)N3CCC(N4CCN(c5ccc6c(c5)C(=O)N(C5CCC(=O)NC5=O)C6=O)CC4)CC3)CC2)CC1 (stereo not drawn) and report it.
result: > 90%

---

Kindly state Dmax for each of the entries shown.
- TARGET_SYSTEM: BTK (Homo sapiens)
- TEST_DETAILS: BTK degradation, DC50 and Dmax of Table 1 (cell line not given)
- Assay type: cell-based
- Design: endogenous in cells

query: Which Dmax reading was recorded for the compound Nc1ncnc2c1c(-c1ccc(Oc3ccccc3)cc1)nn2[C@@H]1CCCN(C2CCN(CCCC3CCN(c4ccc5c(c4)CN(C4CCC(=O)NC4=O)C5=O)CC3)CC2)C1 (stereo partly shown) ?
result: > 50%

query: # input compound: Nc1ncnc2c1c(-c1ccc(Oc3ccccc3)cc1)nn2[C@@H]1CCCN(CC2CCN(C(=O)N3CCC(CCN4CCN(c5ccc6c(c5)CN(C5CCC(=O)NC5=O)C6=O)CC4)CC3)CC2)C1 (stereo partly shown) ; wanted: its Dmax
result: > 90%

query: Requested field: Dmax. Item: Nc1ncnc2c1c(-c1ccc(Oc3ccccc3)cc1)nn2C1CCN(CCOCCOCCN2CCC(c3ccc4c(c3)C(=O)N(C3CCC(=O)NC3=O)C4=O)CC2)CC1 (stereo not shown)
result: > 90%

query: # get_value(readout='Dmax', item= Nc1ncnc2c1c(-c1ccc(Oc3ccccc3)cc1)nn2[C@@H]1CCCN(C(=O)N2CCC(CN3CCC(c4ccc5c(c4)CN(C4CCC(=O)NC4=O)C5=O)CC3)CC2)C1 (stereo partly shown) )
result: > 90%

---

- TARGET_SYSTEM: BTK (Homo sapiens)
- TEST_DETAILS: Degradation of BTK protein in Namalwa cells (Western blot; DC50, Dmax)
- CONDITION_INFO: BTK degradation; cell line not given
For each entry below, report its DC50 value.

query: Value lookup for DC50; key = NC(=O)c1c(-c2ccc(Oc3ccccc3)cc2)nn2c1NCC[C@H]2C1CCN(C2CCN(C(=O)N3CCC(N4CCC(c5ccc6c(c5)C(=O)N(C5CCC(=O)NC5=O)C6=O)CC4)CC3)CC2)CC1 (stereo partly drawn)
result: 10 to 50 nM

query: Fill in the blank: the reported DC50 of NC(=O)c1c(-c2ccc(Oc3ccccc3)cc2)nn2c1NCCC2C1CCN(C2CCN(C(=O)N3CCN(CC4CCN(c5ccc6c(c5)CN(C5CCC(=O)NC5=O)C6=O)CC4)CC3)CC2)CC1 (stereo not drawn) is ____.
result: < 10 nM

query: Field request: DC50 | item: Nc1ncnc2c1c(-c1ccc(Oc3ccccc3)cc1)nn2C1CCN(C2CCN(C(=O)N3CCC(N4CCN(c5ccc6c(c5)CN(C5CCC(=O)NC5=O)C6=O)CC4)CC3)CC2)CC1 (stereo not drawn)
result: < 10 nM

query: Query: DC50; subject: Nc1ncnc2c1c(-c1ccc(Oc3ccccc3)cc1)nn2C1CCN(C2CCN(C(=O)N3CCC(CCCC4CCN(c5ccc6c(c5)C(=O)N(C5CCC(=O)NC5=O)C6=O)CC4)CC3)CC2)CC1 (stereo not drawn)
result: 10 to 50 nM

query: Form field: reported DC50 of NC(=O)c1c(-c2ccc(Oc3ccccc3)cc2)nn2c1NCC[C@H]2C1CCN(CC2CCN(CC3CCN(c4ccc5c(c4)C(=O)N(C4CCC(=O)NC4=O)C5=O)CC3)CC2)CC1 (stereo partly drawn)
result: 10 to 50 nM

query: Requested read-out: DC50. Entry: Nc1ncnc2c1c(-c1ccc(Oc3ccccc3)cc1)nn2C1CCN(CC2CCN(CC3CCN(c4ccc5c(c4)CN(C4CCC(=O)NC4=O)C5=O)CC3)CC2)CC1 (stereo not drawn)
result: > 50 nM
